Assay: Luminescence activity assay of purified Gaussia luciferase mutants on coelenterazine derivative ZS2
Format: biochemical
Parameters: key: ratio of mutant luminescence intensity to wild-type Gaussia luciferase
Conditions: Substrate ZS2 (Table 16)
What Activity of mutant relative to wild-type Gaussia luciferase without the signal peptide was measured for each of the following?

Ask: State the recorded Activity of mutant relative to wild-type Gaussia luciferase without the signal peptide for this entry: E102K S103T E110A: Gaussia luciferase mutant (protein, SIGNAL (1)..(17), Gaussia luciferase mutant) MGVKVLFALICIAVAEAKPTENNEDFNIVAVASNFATTDLDADRGKLPGKKLPLEVLKEMEANARKAGCTRGCLICLSHIKCTPKMKKFIPGRCHTYEGDKKTAQGGIGAAIVDIPEIPGFKDLEPMEQFIAQVDLCVDCTTGCLKGLANVQCSDLLKKWLPQRCATFASKIQGQVDKIKGAGGD
Result: 1.504

Ask: What does the data say about its Activity of mutant relative to wild-type Gaussia luciferase without the signal peptide? Entry: S103I A104G E110G L124M V138D: Gaussia luciferase mutant (protein, SIGNAL (1)..(17), Gaussia luciferase mutant) MGVKVLFALICIAVAEAKPTENNEDFNIVAVASNFATTDLDADRGKLPGKKLPLEVLKEMEANARKAGCTRGCLICLSHIKCTPKMKKFIPGRCHTYEGDKEIGQGGIGGAIVDIPEIPGFKDMEPMEQFIAQVDLCDDCTTGCLKGLANVQCSDLLKKWLPQRCATFASKIQGQVDKIKGAGGD
Result: 1.337

Ask: Sample Q152H Q163D T167G S170V G174K Q175E K178N: Gaussia luciferase mutant (protein, SIGNAL (1)..(17), Gaussia luciferase mutant) MGVKVLFALICIAVAEAKPTENNEDFNIVAVASNFATTDLDADRGKLPGKKLPLEVLKEMEANARKAGCTRGCLICLSHIKCTPKMKKFIPGRCHTYEGDKESAQGGIGEAIVDIPEIPGFKDLEPMEQFIAQVDLCVDCTTGCLKGLANVHCSDLLKKWLPDRCAGFAVKIQKEVDNIKGAGGD — what was its Activity of mutant relative to wild-type Gaussia luciferase without the signal peptide?
Result: 0.862

Ask: Find the recorded Activity of mutant relative to wild-type Gaussia luciferase without the signal peptide belonging to F26D N27D V290 A30D V31I S33R T37L: Gaussia luciferase mutant (protein) MGVKVLFALICIAVAEAKPTENNEDDDIVDIARNFALTDLDADRGKLPGKKLPLEVLKEMEANARKAGCTRGCLICLSHIKCTPKMKKFIPGRCHTYEGDKESAQGGIGEAIVDIPEIPGFKDLEPMEQFIAQVDLCVDCTTGCLKGLANVQCSDLLKKWLPQRCATFASKIQGQVDKIKGAGGD and report it.
Result: 0.213

Ask: # lookup: Activity of mutant relative to wild-type Gaussia luciferase without the signal peptide of Q152K Q163D S170N G174K Q175E K178T A182L G183A: Gaussia luciferase mutant (protein, SIGNAL (1)..(17), Gaussia luciferase mutant) MGVKVLFALICIAVAEAKPTENNEDFNIVAVASNFATTDLDADRGKLPGKKLPLEVLKEMEANARKAGCTRGCLICLSHIKCTPKMKKFIPGRCHTYEGDKESAQGGIGEAIVDIPEIPGFKDLEPMEQFIAQVDLCVDCTTGCLKGLANVKCSDLLKKWLPDRCATFANKIQKEVDTIKGLAGD
Result: 1.183

Ask: # lookup: Activity of mutant relative to wild-type Gaussia luciferase without the signal peptide of K66N P84L E102K E110P D123N: Gaussia luciferase mutant (protein, SIGNAL (1)..(17), Gaussia luciferase mutant) MGVKVLFALICIAVAEAKPTENNEDFNIVAVASNFATTDLDADRGKLPGKKLPLEVLKEMEANARNAGCTRGCLICLSHIKCTLKMKKFIPGRCHTYEGDKKSAQGGIGPAIVDIPEIPGFKNLEPMEQFIAQVDLCVDCTTGCLKGLANVQCSDLLKKWLPQRCATFASKIQGQVDKIKGAGGD
Result: 0.112

Ask: Need Activity of mutant relative to wild-type Gaussia luciferase without the signal peptide of Q152H Q163T T167S S170D G174K K178N A182Y G183N: Gaussia luciferase mutant (protein, SIGNAL (1)..(17), Gaussia luciferase mutant) MGVKVLFALICIAVAEAKPTENNEDFNIVAVASNFATTDLDADRGKLPGKKLPLEVLKEMEANARKAGCTRGCLICLSHIKCTPKMKKFIPGRCHTYEGDKESAQGGIGEAIVDIPEIPGFKDLEPMEQFIAQVDLCVDCTTGCLKGLANVHCSDLLKKWLPTRCASFADKIQKQVDNIKGYNGD , thanks.
Result: 0.089

Ask: Returns the measured Activity of mutant relative to wild-type Gaussia luciferase without the signal peptide for the input molecule. Input: F26T N27D V29P A30G V31I A32G S33I A36I T37L L40I: Gaussia luciferase mutant (protein, SIGNAL (1)..(17), Gaussia luciferase mutant) MGVKVLFALICIAVAEAKPTENNEDTDIPGIGINFILTDIDADRGKLPGKKLPLEVLKEMEANARKAGCTRGCLICLSHIKCTPKMKKFIPGRCHTYEGDKESAQGGIGEAIVDIPEIPGFKDLEPMEQFIAQVDLCVDCTTGCLKGLANVQCSDLLKKWLPQRCATFASKIQGQVDKIKGAGGD
Result: 0.224

Ask: Look up Activity of mutant relative to wild-type Gaussia luciferase without the signal peptide for this molecule: K66N H79K P84K E102K S103I E110P L124M: Gaussia luciferase mutant (protein, SIGNAL (1)..(17), Gaussia luciferase mutant) MGVKVLFALICIAVAEAKPTENNEDFNIVAVASNFATTDLDADRGKLPGKKLPLEVLKEMEANARNAGCTRGCLICLSKIKCTKKMKKFIPGRCHTYEGDKKIAQGGIGPAIVDIPEIPGFKDMEPMEQFIAQVDLCVDCTTGCLKGLANVQCSDLLKKWLPQRCATFASKIQGQVDKIKGAGGD
Result: 1.118
